Values were extracted from patent US20240400571A1.

Item-by-item account of EC50
- target-of-assay: NLRP3 inflammasome (Homo sapiens, UniProt Q96P20)
- Construct: host or cells: THP-1 human monocytic cells, treated with PMA and stimulated with gramicidin
- Sequence (Q96P20 whole entry): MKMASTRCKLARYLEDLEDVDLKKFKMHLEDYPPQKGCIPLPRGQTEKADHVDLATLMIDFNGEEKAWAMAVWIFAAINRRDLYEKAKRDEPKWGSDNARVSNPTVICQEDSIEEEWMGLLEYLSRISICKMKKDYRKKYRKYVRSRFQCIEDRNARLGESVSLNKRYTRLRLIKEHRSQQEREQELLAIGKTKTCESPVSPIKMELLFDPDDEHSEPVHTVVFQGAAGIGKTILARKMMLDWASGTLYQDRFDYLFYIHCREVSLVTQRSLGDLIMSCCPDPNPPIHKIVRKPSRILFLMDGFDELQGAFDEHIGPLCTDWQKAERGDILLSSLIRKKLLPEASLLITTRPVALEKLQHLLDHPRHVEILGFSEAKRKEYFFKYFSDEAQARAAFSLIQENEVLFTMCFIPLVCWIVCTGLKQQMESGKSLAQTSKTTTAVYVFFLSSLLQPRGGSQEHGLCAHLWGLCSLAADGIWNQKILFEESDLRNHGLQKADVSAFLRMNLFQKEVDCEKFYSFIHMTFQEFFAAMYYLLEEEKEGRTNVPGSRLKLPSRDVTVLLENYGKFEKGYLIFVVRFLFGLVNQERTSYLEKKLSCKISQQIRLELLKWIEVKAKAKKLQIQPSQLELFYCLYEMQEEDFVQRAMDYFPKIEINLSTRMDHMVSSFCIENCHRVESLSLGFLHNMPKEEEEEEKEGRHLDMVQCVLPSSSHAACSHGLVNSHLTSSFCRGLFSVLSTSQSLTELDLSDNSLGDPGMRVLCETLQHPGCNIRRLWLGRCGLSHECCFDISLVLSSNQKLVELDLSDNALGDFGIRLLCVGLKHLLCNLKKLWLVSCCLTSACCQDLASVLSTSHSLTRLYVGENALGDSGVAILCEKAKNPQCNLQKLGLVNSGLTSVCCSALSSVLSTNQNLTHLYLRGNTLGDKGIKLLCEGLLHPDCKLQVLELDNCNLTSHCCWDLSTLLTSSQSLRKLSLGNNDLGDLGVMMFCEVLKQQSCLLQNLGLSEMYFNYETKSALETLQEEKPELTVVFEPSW
- protocol-text: ASC-SPECK formation in THP-1 cells after gramicidin stimulation (NLRP3 inflammasome activation)
- Format: cell-based
- assay-setup: PMA-treated human monocytic THP-1 cells; compound 1 h before 12.5 μg/ml gramicidin, 3-hour treatment; ASC SPECK imaging; read-out: EC50 values (nM) for Examples that inhibit NLRP3 inflammasome activation
- Protocol: The ability of compounds to inhibit NLRP3 inflammasome activation was determined in vitro by monitoring formation of the ASC-SPECK in human monocytic THP-1 cells after stimulation. […] Immunofluorescence staining: Anti-ASC antibody (MBL catalog #D086-3) was desalted and labeled with Alexa 488 antibody labeling kit (Thermo catalog #A20181) prior to use as described below. […] The number of DRAQ5 positive cells containing ASC SPECKS were quantified in each well. […]

compound | target-of-assay | units | EC50
Cc1c(-c2ccc(C3CC3)c(F)c2O)nnc2c1ncn2[C@@H]1CCCN(C)C1 | NLRP3 inflammasome (Homo sapiens, UniProt Q96P20) | nM | 1530
[2H]C([2H])([2H])N1CCC[C@@H](n2cnc3c(C)c(-c4ccc(C(F)(F)F)cc4O)nnc32)C1 | NLRP3 inflammasome (Homo sapiens, UniProt Q96P20) | nM | 29
Cc1c(-c2ccc(Cl)cc2O)nnc2c1ncn2[C@@H]1CCCN(C)C1 | NLRP3 inflammasome (Homo sapiens, UniProt Q96P20) | nM | 28
Cc1ccc(-c2nnc3c(ncn3[C@@H]3CCCN(C)C3)c2C)c(O)c1F | NLRP3 inflammasome (Homo sapiens, UniProt Q96P20) | nM | 84
Cc1c(-c2ccc(C(F)(F)F)cc2O)nnc2c1ncn2[C@H]1CC[C@H]2CC[C@@H]1N2C (single isomer, unassigned) | NLRP3 inflammasome (Homo sapiens, UniProt Q96P20) | nM | 1410
Cc1c(-c2ccc3c(c2O)CCC3)nnc2c1ncn2[C@@H]1CCCNC1 | NLRP3 inflammasome (Homo sapiens, UniProt Q96P20) | nM | 53
CCN1CCC[C@@H](n2cnc3c(C)c(-c4ccc(C(F)(F)F)cc4OC(F)F)nnc32)C1 | NLRP3 inflammasome (Homo sapiens, UniProt Q96P20) | nM | 699
Cc1c(-c2ccc(C(F)(F)F)cc2O)nnc2c1ncn2[C@@H]1CCCN(C2CCC2)C1 | NLRP3 inflammasome (Homo sapiens, UniProt Q96P20) | nM | 112
